- test.name: The pKa2 value for the compound was determined by titrating in an aqueous solution (ISA).
- Type: physicochemical
- applied.conditions: read-out: pKa2
Overview of recorded pKa for various compounds

{"smiles": "COc1cc(C(=O)N2CC[C@](CCN3CCC(C(N)=O)(c4ccncc4)CC3)(c3ccc(Cl)c(Cl)c3)C2)cc(OC)c1OC.Cl", "pKa": 4.14}
{"smiles": "COc1cc(C(=O)N2CC[C@](CCN3CCC(C(N)=O)(c4cccnc4)CC3)(c3ccc(Cl)c(Cl)c3)C2)cc(OC)c1OC.Cl", "pKa": 3.97}
{"smiles": "COc1cc(C(=O)N2CC[C@](CCN3CCC(C(=O)N4CCN(C)CC4)(c4cccnc4)CC3)(c3ccc(Cl)c(Cl)c3)C2)cc(OC)c1OC.Cl", "pKa": 7.76}
{"smiles": "COc1cc(C(=O)N2CC[C@](CCN3CCC(C(=O)N4CCN(C)CC4)(c4ccccc4)CC3)(c3ccc(Cl)c(Cl)c3)C2)cc(OC)c1OC.Cl", "pKa": 6.86}
